# targetOrSystem: SpHof1-2
# protocolDetails: SPOT peptide array binding signal intensity (averaged, normalized) (arbitrary units (background-subtracted, floor 0; scale differs between SH3 domains)); higher = stronger binding of the SH3 domain to the peptide
Would you mind telling me the reported SPOT peptide array binding signal intensity of each entry?
Answers are plain numbers.

binder: PALPSLPPPPLLNVD
assayValue: 1210
--
binder: ISRRRLPVIMHRLKM
assayValue: 101
--
binder: RPKRRAPPPVPKKPS
assayValue: 43.2

Required: SPOT peptide array binding signal intensity, one value per binder below.
1. WRPRIVPILPYITRL
2. RRSKSLPTTPGIRSG
3. TYNRTAFQIPGDQSI
4. YVRRRPRVRLEPLLS
5. QDKEGIPPDQQRLIF
6. LPMNIQPDLPPRKIM
7. VRTRRRPPPPPIPST

Result:
1. 18.5
2. 3020
3. 5.25
4. 29.5
5. 0.5
6. 18.2
7. 73
